Cited source: patent US20080107658A1

- Target System: human nerve growth factor (beta-NGF) (human, UniProt P01138 122-241)
- Sequence (P01138 122-241): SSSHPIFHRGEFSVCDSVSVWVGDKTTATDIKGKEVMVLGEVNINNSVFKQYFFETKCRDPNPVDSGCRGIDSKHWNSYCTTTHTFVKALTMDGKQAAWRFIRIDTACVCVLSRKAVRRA
- Test Protocol: cell-based or functional assay
Measured Metric: IC50, PC12 cell survival (nM)
Numbers only, in nM.

Binder: G1152H5 human IgG4 (antibody, V domains shown, tested as whole human IgG4; also called germlined 1152H5) VH: QVQLVQSGAEVKKPGSSVKVSCKASGGTFSTYGISWVRQAPGQGLEWMGGIIPIFDTGNSAQSFQGRVTITADESTSTAYMELSSLRSEDTAVYYCARSSRIYDMISSLQPYYDMDVWGQGTMVTVSS VL: QSVLTQPPSVSAAPGQKVTISCSGSSSNIGNNYVSWYQQLPGTAPKLLIYDNNKRPSGIPDRFSGSKSGTSATLGITGLQTGDEADYYCGTWDSSLSAWVFGGGTKLTVL
IC50, PC12 cell survival (nM): 1.1

Let me know recorded IC50, PC12 cell survival for 1127F9 human IgG4 (antibody, V domains shown) VH: EVQLVQSGAEVKKPGSSVKVSCKASGGTFSTYGISWVRQAPGQGLEWIGGIIPIFDTGNSAQSFQGRVTITADESTSTAYMKVSSLRSDDTAVYYCASSSRIYDYIPGMRPYYDMDVWGQGTMVTVSS VL: QAVLTQPSSVSTPPGQKVTISCSGNSSNIGNNYVSWYQQLPGTAPKLLIYDNNKRPSGIPDRFSGSRSGTLATLGITGLQTGDEADYYCGTWDSSLSAWVFGGGTKLTVL , thanks.
0.59
